System: Staphylococcus aureus
protocol: Antimicrobial activity against methicillin-resistant Staphylococcus aureus CBD-635 assessed as zone of inhibition at 5 mg/ml after 24 hrs by disk diffusion assay
Type: functional
details: CBD-635, 24 h, read-out: IZ
Note to self: values exactly at 10 mm are T. So zone of inhibition at 5000 µg/mL at or above 10 mm is T, below is F.

mol	assigned_category
c1coc(CNc2nc(NC3CCCC3)nc3ccccc23)c1	T
c1ccc(CNc2nc(NCc3ccccc3)c3ccccc3n2)cc1	T
CCCCNc1nc(Nc2ccccc2)nc2ccccc12	T
Cc1ccc(Nc2nc(NCc3ccco3)c3ccccc3n2)cc1	F
CCCCNc1nc(Nc2ccccc2)c2ccccc2n1	T
CC(C)Nc1nc(NCc2ccccc2)c2ccccc2n1	T
CC(C)Nc1nc(NCc2ccco2)c2c(Cl)cccc2n1	F
CCCCNc1nc(NCc2ccccc2)c2ccccc2n1	T
CC(C)Nc1nc(NCc2ccccc2)nc2ccccc12	T
COc1cccc2nc(NC(C)C)nc(NCc3ccco3)c12	F
c1ccc(CNc2nc(NCc3ccco3)c3ccccc3n2)cc1	T
CC(C)Nc1nc(NCc2ccco2)nc2ccccc12	T
